Assay: Cytotoxicity assay, Cell-Titer-Glo, HeLa-CD4-LTR-LacZ
Conditions: human, hela-cd4-ltr-lacz cells
observedProperty: CC50

> print(dat)
                                smilesrepr  observedproperty  observed
1  O=C(NCCCn1ccnc1)C1(O)c2ccccc2-c2ccccc21              CC50  > 100 µM

###

Test system: HIV NL4.3 strain
Assay: HIV infectivity assay, reporter cell line HeLa-CD4-LTR-LacZ, β-Gal activity (Tat protein inhibition)
Type: cell-based, HIV-1 (NL4.3)
Conditions: Human immunodeficiency virus 1, read-out: Infectivity IC50, HeLa-CD4-LTR-LacZ; analogs of TT-44881 (Table 1)
observedProperty: IC50

> print(dat)
                                   compound     observed
1     O=C(NCCCN1CCCC1=O)c1nc2ccccc2[nH]c1=O  10 to 30 µM
2      O=C(NCCCN1CCCC1=O)c1cnn(-c2ccccc2)c1     > 100 µM
3     Cc1cc(C(=O)NCCCN2CCCC2=O)nn1-c1ccccc1     > 100 µM
4  O=C(NCCCN1CCCC1=O)c1cn(-c2ccccc2)c2ncc(F)cc12   1 to 50 µM
5  O=C(NCCCN1CCCC1=O)c1nn(-c2ccccc2)c2c1CCC(O)C2 (centres unmarked)   1 to 10 µM

###

Tested on: HIV NL4.3 strain
Experiment: HIV infectivity assay, reporter cell line HeLa-CD4-LTR-LacZ, β-Gal activity (Tat protein inhibition)
Type: cell-based, HIV-1 (NL4.3)
Conditions: Human immunodeficiency virus 1, read-out: Infectivity IC50, HeLa-CD4-LTR-LacZ; analogs of TT-44881 (Table 1)
pIC50: −log10 of the molar value.
observedProperty: pIC50

> print(dat)
                                  smilesrepr        testsystem      observed
 1      O=C(NCCCN1CCCC1=O)c1ccn(-c2ccccc2)n1  HIV NL4.3 strain        < 4.00
 2  O=C(NCCCN1CCCC1=O)c1nn(Cc2ccccc2)c2c1CCC2  HIV NL4.3 strain        < 4.00
 3  CCCN(CCCN1CCCC1=O)C(=O)c1nn(-c2ccccc2)c2c1CCC2  HIV NL4.3 strain  4.52 to 5.30
 4         O=C(NCCCN1CCCC1=O)c1c[nH]nc1C1CC1  HIV NL4.3 strain        < 4.00
 5  CCOC(=O)c1c(NCCCN2CCCC2=O)c2ccccc2[nH]c1=O  HIV NL4.3 strain        < 4.00
 6  O=C(NCCCN1CCCC1=O)c1nn(-c2ccccc2)c2c1CCCCC2  HIV NL4.3 strain        < 4.00
 7         O=C(NCCCN1CCCC1=O)c1n[nH]c2c1CCC2  HIV NL4.3 strain        < 4.00
 8  CC(C)N(CCCN1CCCC1=O)C(=O)c1nn(-c2ccccc2)c2c1CCC2  HIV NL4.3 strain  4.30 to 4.52
 9  O=C(NCCCN1CCCC1=O)c1cn(-c2ccccc2)c2ccccc12  HIV NL4.3 strain  4.00 to 4.30
10  O=C(NCCCN1CCCC1=O)c1nn(-c2ccccc2)c2c1CCC1(C2)OCCO1  HIV NL4.3 strain        < 4.00
11  O=C(NCCCN1CCCC1=O)c1nn(-c2ccccc2)c2ccc(F)cc12  HIV NL4.3 strain  4.00 to 4.30
12  O=C(NCCCN1CCCC1=O)c1nnc(-c2ccccc2)c2ccccc12  HIV NL4.3 strain        < 4.00
13  O=C(NCCCN1CCCC1=O)c1nn(-c2ccccc2)cc1C(F)(F)F  HIV NL4.3 strain  4.00 to 4.30
14     N#Cc1c(NCCCN2CCCC2=O)c2ccccc2[nH]c1=O  HIV NL4.3 strain        < 4.00
15  O=C(O)c1ccc(CNC(=O)c2cn(-c3ccccc3)c3ccccc23)cc1  HIV NL4.3 strain        < 4.00
16  CC(C)(C)c1cn(-c2ccccc2)nc1C(=O)NCCCN1CCCC1=O  HIV NL4.3 strain        < 4.00
17   O=C(NCCCN1CCCC1=O)c1nn(CC2CCC2)c2c1CCC2  HIV NL4.3 strain        < 4.00

###

Assay: Cytotoxicity assay, Cell-Titer-Glo, HeLa-CD4-LTR-LacZ
Conditions: human, hela-cd4-ltr-lacz cells, Infectivity CC50, HeLa-CD4-LTR-LacZ; analogs of TT-44863 (Table 2)
observedProperty: CC50

> print(dat)
                                    compound  observedproperty     observed
 1  COc1ccc(C(F)(F)F)cc1NC(=O)Cn1cc(F)cc(Cl)c1=O [compound 47006]              CC50      > 50 µM
 2  COc1ccc(C(F)(F)F)cc1CNC(=O)Cn1cc(C(F)(F)F)ccc1=O [compound 46960]              CC50     > 100 µM
 3  CCOc1ccccc1NC(=O)Cn1cc(C(F)(F)F)cc(Cl)c1=O [compound 46604]              CC50     > 100 µM
 4  CN1CCN(CCOc2ccc(C(F)(F)F)cc2NC(=O)Cn2cc(C(F)(F)F)cc(Cl)c2=O)CC1 [compound 52]              CC50  25 to 50 µM
 5  COCCOc1ccccc1NC(=O)Cn1cc(C(F)(F)F)cc(Cl)c1=O [compound 46624]              CC50     > 100 µM
 6  COc1ccc(C(F)(F)F)cc1NC(=O)C(CCO)n1cc(C(F)(F)F)cc(Cl)c1=O (stereo not drawn) [compound 60]              CC50  10 to 30 µM
 7  COc1ccc(C#N)cc1NC(=O)Cn1cccc(Cl)c1=O [TT-46766]              CC50     > 100 µM
 8  COc1ccc(C(F)(F)F)cc1CNC(=O)Cn1cc(C)cc(Cl)c1=O [compound 46957]              CC50      > 50 µM
 9  N#Cc1ccc(C(F)(F)F)cc1NC(=O)Cn1cc(C(F)(F)F)cc(Cl)c1=O [compound 47061]              CC50     > 100 µM
10  COc1cc(C(F)(F)F)ccc1NC(=O)Cn1cc(C(F)(F)F)cc(Cl)c1=O [compound 46808]              CC50     > 100 µM
11  CCOCCOCCOc1ccc(C(F)(F)F)cc1NC(=O)Cn1cc(C(F)(F)F)cc(Cl)c1=O [compound 55]              CC50     > 100 µM
12  COc1ccc(C(F)(F)F)cc1NC(=O)Cn1cc(C(F)(F)F)ccc1=O [compound 46917]              CC50     > 100 µM
13  COc1ccccc1NC(=O)Cn1cc(C(F)(F)F)cc(Cl)c1=O [compound 46605]              CC50     > 100 µM
14  Cc1ccc(C(F)(F)F)cc1NC(=O)Cn1cc(C(F)(F)F)cc(Cl)c1=O [compound 47001]              CC50     > 100 µM
15  COc1ccc(NC(=O)Cn2cc(C(F)(F)F)cc(Cl)c2=O)cc1C(F)(F)F [compound 44]              CC50     > 100 µM
16  COc1cc(C(F)(F)F)ccc1NC(=O)Cn1cccc(Cl)c1=O [compound 47171]              CC50     > 100 µM
17  COc1ccc(C(F)(F)F)cc1NC(=O)Cn1cc(C(F)(F)F)cc(Cl)c1=O [TT-46600]              CC50     > 100 µM
18  COCCOc1ccc(C(F)(F)F)cc1NC(=O)Cn1cccc(F)c1=O [compound 46762]              CC50     > 100 µM

###

Let's look at some compounds and their measured IC50.
Tested on: HIV NL4.3 strain
Test: HIV infectivity assay, reporter cell line HeLa-CD4-LTR-LacZ, β-Gal activity (Tat protein inhibition)
Assay type: cell-based, HIV-1 (NL4.3)
Settings: Human immunodeficiency virus 1, read-out: Infectivity IC50, HeLa-CD4-LTR-LacZ; analogs of TT-44881 (Table 1)
observedProperty: IC50

> print(dat)
                                   compound      observed
1  NS(=O)(=O)c1ccc(CCNC(=O)c2cn(-c3ccccc3)c3ccccc23)cc1 [compound 41799]    5 to 20 µM
2  CCCN(CCCN1CCCC1=O)C(=O)c1cc(C)n(-c2ccccc2)n1 [GB-17]      > 100 µM
3  O=C(NCCCN1CCCC1=O)c1nn(-c2ccccc2)c2ncccc12 [compound 46752]      > 100 µM
4  O=C(NCCCN1CCCC1=O)c1c(-c2ccccc2)[nH]c2ccccc2c1=O [compound 46825]      > 100 µM
5  O=C(NCCCN1CCCC1=O)c1cn(-c2ccccc2)c2ncccc12 [compound 46751]      > 100 µM
6  O=C(NCCCN1CCCC1=O)c1cn(-c2ccccc2)c2ccc(F)cc12 [compound 46880]  50 to 100 µM
7  CN(CCCN1CCCC1=O)C(=O)c1nn(-c2ccccc2)c2c1CCC2 [GB-04]      > 100 µM
8  O=C1CCCN1CCCN(Cc1ccccc1)C(=O)c1nn(-c2ccccc2)c2c1CCC2 [GB-09]   25 to 50 µM
9  CCn1nc(C(=O)NCCCN2CCCC2=O)c2c1CCC2 [compound 46932]      > 100 µM

Cited source: patent US20260355184A1
